- testProtocol: in vitro
- testSettings: human, Caco-2, pH 7.4
Would you kindly list efflux ratio at 10 μM for each of these molecules?
Give bare numbers.

A selection of reference data follows.
molecule	efflux ratio at 10 μM
Cc1c(Cl)ccc2c(-c3cccc4nn(C)cc34)nn(-c3ccc(N4CCC(C(=O)O)CC4)nc3)c12 [compound 9]	1.5
Cc1c(F)ccc2c(-c3cccc4nn(C)cc34)nn(-c3ccc(N4CCC(C(=O)O)CC4)nc3)c12 [compound 7]	1.8
Cc1cc(F)cc2c(-c3cccc4nn(C)cc34)nn(-c3ccc(N4CCN(C=O)CC4)nc3)c12 [Example #3]	1.7

Hello, I would appreciate it if you could give efflux ratio at 10 μM for each entry below.
1. Cc1c(F)ccc2c(-c3cccc4nn(C)cc34)nn(-c3ccc(N4C[C@@H]5[C@H](C4)[C@H]5C(=O)O)nc3)c12 [compound 6]
2. Cc1c(Cl)c(F)cc2c(-c3cccc4nn(C)cc34)nn(-c3ccc(N4CCC(C(=O)O)CC4)nc3)c12 [compound 12]
3. Cc1cc(F)cc2c(-c3cccc4nn(C)cc34)nn(-c3ccc(N4CCC(C(=O)O)CC4)nc3)c12 [compound 4]
4. Cc1c(Cl)ccc2c(-c3cccc4nn(C)cc34)nn(-c3ccc(N4C[C@@H]5[C@H](C4)[C@H]5C(=O)O)nc3)c12 [compound 8]
5. Cc1c(Cl)c(F)cc2c(-c3cccc4nn(C)cc34)nn(-c3ccc(N4C[C@@H]5[C@H](C4)[C@H]5C(=O)O)nc3)c12 [compound 13]
6. Cc1cc(F)cc2c(-c3cccc4nn(C)cc34)nn(-c3ccc(N4C[C@@H]5[C@H](C4)[C@H]5C(=O)O)nc3)c12 [compound 5]

### Response
1: 2.4; 2: 6.4; 3: 1; 4: 1.4; 5: 3.6; 6: 2.6
